System: IGROV1 ovarian
protocol: NCI tumour cell line growth inhibition, 48 h
Listed below: TGI values for each entry.

{"columns": ["molecule", "observedValue"],
 "data": [
  ["CN(CCNC(=O)c1nn(C)c2c1Cc1ccccc1-2)CCNC(=O)c1nn(C)c2c1Cc1ccccc1-2", "27.5 µM"],
  ["Cc1[nH]c2c(C)c3c([nH]c4ccc(Cl)cc43)c(C)c2c(=O)c1C", "> 65.5 µM"],
  ["O=C1c2ccc3c4c(ccc(c24)C(=O)N1CCCCO)C(=O)N(CCCCO)C3=O", "5.87 µM"],
  ["COC(=O)[C@@H]1CN(C(=O)Cc2ccccc2)C(=O)N1", "> 100 µM"],
  ["c1cc(CSP234N5CCN2CCN3CCN4CC5)cc(CSP234N5CCN2CCN3CCN4CC5)c1", "76.6 µM"]
]}

// TGI value for CCOC(=O)Nc1cc2c(c(N)n1)N=C(c1ccc(Cl)cc1Cl)CN2 : 34.3 µM

// TGI value for COc1cc(O)c(C(=O)C2Cc3ccccc32)c(OC)c1 (stereo unspecified) : > 100 µM

// TGI value for COc1ccc2cc(CNCCCCCCNC(=O)Nc3cccc4ccccc34)ccc2c1 : > 100 µM

###

System: UACC-257 melanoma
protocol: NCI tumour cell line growth inhibition, 48 h
Listed below: TGI values for each entry.

{"columns": ["compound", "TGI"],
 "data": [
  ["C[N+]1(CC[N+]2(C)CCCC2c2cccnc2)CCCC1c1cccnc1 (configuration not stated)", "> 100 µM"]
]}

// TGI value for COc1oc(C2C/C(=C/C(C)=C/C(C)=C/C(C)=C/c3ccc([N+](=O)[O-])cc3)CO2)c(C)c(=O)c1C (configuration not stated) : 66 µM

// TGI value for O=C1OCc2nc3c(c(-c4ccccc4C(F)(F)F)c21)C(=O)OC3 : > 100 µM

// TGI value for O=C(Cn1c(=O)oc2ccccc21)N(c1ccccc1)c1ccccc1 : > 100 µM

// TGI value for O=C1C=C2SC3C[C@@]24CC1(O)[N+]1=c2c4c(c(O)c4c2=C(C=N4)CC1)N3 : 2.42 µM

// TGI value for C=C(CN1CCN(c2cc(C(F)(F)F)cc(C(F)(F)F)c2)CC1)c1ccc(C(=O)Nc2ccccc2N)cc1 : 64.9 µM

// TGI value for CO[C@H]1C[C@H](O[C@H]2CC[C@@]3(C)[C@H](CC[C@@H]4[C@@H]3CC[C@]3(C)[C@@H](C5=CC(=O)OC5)CC[C@]43O)C2)O[C@H](C)[C@H]1O : 0.215 µM

// TGI value for NN=C1/C(=C\c2ccccc2)CCC/C1=C/c1ccccc1 : > 100 µM

// TGI value for Cc1c2ccncc2c(C)c2c1[nH]c1ccc(O)cc12 : 1.12 µg/mL

// TGI value for CCn1c(=O)nc2n(-c3ccc(SC)cc3)c3ccccc3nc-2c1=O : > 100 µM

// TGI value for Cc1csc(NCc2ccc(Cl)cc2)n1 : > 100 µM

// TGI value for COC1=CC(=O)C2(C=C1OC)OC[C@H]1Oc3c(ccc4c3C=CC(C)(C)O4)C(=O)[C@H]12 (some centres not stated) : > 100 µM

// TGI value for OC[C@H]1C[C@](O)(c2ccccc2Cl)[C@@H](c2ccccc2Cl)O1 : 42.6 µM

// TGI value for CCOC(=O)/C(C(=O)c1ccc[nH]1)=C1/CCCN1C : > 100 µM

// TGI value for NC1=Nc2ncccc2C(=O)NN1 : > 10 µM

// TGI value for O=C1c2ccc3c4c(ccc(c24)C(=O)N1CCCCO)C(=O)N(CCCCO)C3=O : 2.71 µM

// TGI value for Nc1nc(N)c(CCCCc2ccc([N+](=O)[O-])cc2)c(N)n1 : > 100 µM
